Test system: T-47D breast
measurement.notes: NCI-60 one-dose screen, 48 h
recorded.conditions: 10 µM unless noted
The panel holds about 83,000 compounds, 20% with a hit somewhere; the sample as a whole holds those more often. Activity calls are given as the source filed them. How the source made its calls: active means growth percent below 10; inactive means the rest.
# output must be one of Yes (active), No (inactive)

| compound | class.assignment |
| --- | --- |
| CC1OC(OC2C(OC3CCC4(C)C(CCC5(C)C4CC=C4C6CC(C)(C)CCC6(CO)C(O)CC45C)C3(C)C)OC(C(=O)O)C(OC3OC(COC4OC(CO)C(O)C(O)C4O)C(O)C(O)C3O)C2O)C(O)C(O)C1O (stereo unspecified) | Yes |
| CN1c2ccccc2C(C)(C)C12C=Cc1cc(O)ccc1O2 (stereo unspecified) | No |

Hello, I am checking results. What call was entered for Oc1c(Cl)c2ccccc2c2ccccc12 ?
No

Hello, I am checking results. What call was entered for Cc1c2ccccc2c(C)c2c1ccc1ccccc12 ?
No

Hello, I am checking results. What call was entered for CN=C(N)N/N=C(\C)c1ccc2c(c1)Cc1cc(/C(C)=N/NC(N)=NC)ccc1-2 ?
Yes

Hello, I am checking results. What call was entered for S=C(N/N=C/c1ccccn1)Nc1ccccn1 ?
No

Hello, I am checking results. What call was entered for O=C1c2ccccc2C(=O)c2sc(Nc3cccc(Cl)c3)nc21 ?
No

Hello, I am checking results. What call was entered for Oc1c(Br)c(Br)c(O)c(Br)c1Br ?
No

Hello, I am checking results. What call was entered for N#CSCc1ccc(Cl)c(CSC#N)c1 ?
No

Hello, I am checking results. What call was entered for CCN(CC)CC(C)(C)C(=O)/C=C/c1ccc(Cl)c(Cl)c1 ?
Yes

Hello, I am checking results. What call was entered for O=C(CC1(O)C(=O)Nc2c(Cl)ccc(Cl)c21)c1ccc(Cl)cc1Cl (stereo unspecified) ?
No

Hello, I am checking results. What call was entered for COC(=O)c1nc(=S)[nH]c(C(=O)OC)c1C(=O)c1ccc2ccccc2c1 ?
No

Hello, I am checking results. What call was entered for Cc1ccnc2c1ccc1c(C)ccnc12 ?
Yes

Hello, I am checking results. What call was entered for N#Cc1ccc([N+](=O)[O-])o1 ?
No

Hello, I am checking results. What call was entered for COC(=O)[C@@]12OC[C@]34[C@H]([C@@H](O)[C@@H]1O)[C@@]1(C)[C@H](O)C(=O)C=C(C)[C@@H]1C[C@H]3OC(=O)C(OC(C)=O)[C@@H]24 (stereo partly specified) ?
Yes

Hello, I am checking results. What call was entered for COc1ccc(N=N/N=c2\sc3cc(OC)ccc3n2C)cc1 ?
No
